The reported numbers originate from paper PMC12040169.

- measurementDescription: in vitro
- experimentalParameters: human, hela cells, % viability
The label yes (1) is reserved for viability at 28.5 h, 10 µM strictly under 90%; no (0) covers values equal to or above it.

### Prompt Find out if reported viability at 28.5 h, 10 µM for "COc1ccccc1-c1noc(CCCC(=O)Nc2cccnc2)n1" is less than 90%
### Response no (0)

### Prompt Problem: For the compound "CC(C)(C)c1ccc(C(=O)Nc2cnn(CCCC(=O)O)c2)cc1" , is viability at 28.5 h, 10 µM under 90%?
### Response no (0)

### Prompt Does this compound meet the criterion viability at 28.5 h, 10 µM < 90%? "CCN1CCN(Cc2c[nH]c3ccccc23)CC1"
### Response no (0)

### Prompt Say whether its viability at 28.5 h, 10 µM is strictly beneath 90%. Entry: "COc1ccc(S(=O)(=O)n2ccn(-c3ccc(Oc4ccccc4)cc3)c2=O)cc1OC"
### Response yes (1)

### Prompt Dear reviewer, please state whether "CCOC(=O)c1cccc(NS(=O)(=O)c2cc(Br)ccc2OC)c1" has viability at 28.5 h, 10 µM strictly beneath 90%.
### Response yes (1)

### Prompt Threshold test, viability at 28.5 h, 10 µM < 90%: Cc1ccc([N+](=O)[O-])cc1NC(=O)C1Cc2ccccc2CN1C(=O)OCc1ccccc1 (stereo not drawn)
### Response no (0)

### Prompt Please indicate whether the reported viability at 28.5 h, 10 µM of Cc1ccc(C(C)C(=O)N2CCC(C(=O)c3cccnc3)CC2)cc1 (stereo not drawn) is strictly below 90%.
### Response no (0)

---

- measurementDescription: in vitro
- experimentalParameters: human, hela cells, % viability
valueKind: viability at 28.5 h, 10 µM

Sure, the documented viability at 28.5 h, 10 µM for Cc1cccc(OCC2CCCN(C(=O)c3cn(C)cn3)C2)c1 (centres unmarked) [CBK307021] is 83.4%

Record Cc1cccc(OCC(=O)Nc2ccc(-c3nc4ncccc4o3)cc2C)c1 [CBK269287] , field viability at 28.5 h, 10 µM: 87.3%

molecule Cc1cccc(C)c1N1C(=O)c2ccccc2NC12C(=O)Nc1ccc([N+](=O)[O-])cc12 (centres unmarked) [CBK103749] , viability at 28.5 h, 10 µM observed: 80.6%

Lab note: Cc1cc(CN2CCCN(S(=O)(=O)c3ccc(C(F)(F)F)cc3Cl)CC2)cc(C)c1O [CBK063102] gave viability at 28.5 h, 10 µM of 91.2%

The molecule identified as CNS(=O)(=O)c1cc(C(=O)O)ccc1OC [CBK270179] registered its viability at 28.5 h, 10 µM at 104%

Value of viability at 28.5 h, 10 µM reported for the molecule Cn1nc(C(F)(F)F)c(C#N)c1Oc1ccc(C(C)(C)C)cc1 [CBK007398] is 95.7%

According to the records, this molecule O=C(NCC(O)c1ccccc1)Nc1ccccc1 (centres unmarked) [CBK057227] displays viability at 28.5 h, 10 µM of 95.2%

Entry Nc1ncc(-c2ccoc2)nc1-c1ccc(F)c(Cl)c1 [CBK063982] ; viability at 28.5 h, 10 µM = 93.9%

Query Cc1nc(C)c(C(=O)NCC(C)(C)N2CCCCC2)o1 [CBK281866] yields viability at 28.5 h, 10 µM of 94.2%

The molecule listed as CCc1ccc(S(=O)(=O)N2CCN(C(c3ccccc3)c3ccccc3)CC2)cc1 [CBK093948] has a reported viability at 28.5 h, 10 µM of 98.6%

Notebook: COc1ccc(-n2ncc(-c3ccc(C(F)(F)F)cc3)n2)cc1 [CBK112688] , viability at 28.5 h, 10 µM read as 92.4%

Kindly note the recorded viability at 28.5 h, 10 µM for CC1(C)NC(=O)N(CC(O)COc2cc3ccccc3cc2C(=O)N2CCCCC2)C1=O (centres unmarked) [CBK019029] , which is 120%

viability at 28.5 h, 10 µM measured on COC(=O)c1ccc(NS(=O)(=O)c2cccc3cccnc23)cc1 [CBK028694] = 104%

# viability at 28.5 h, 10 µM (molecule: O=C1NC(=O)C2(CCN(Cc3ccccc3)CC2)N1 [CBK005078] ) is 86.8%

Reported viability at 28.5 h, 10 µM of Cn1cccc1C(=O)N1CCC(OCc2cnc(-c3ccc(S(C)(=O)=O)cc3)cn2)CC1 [CBK172007] : 106%

Form: molecule = O=C(c1csnn1)N1Cc2ccccc2C1 [CBK200325] ; viability at 28.5 h, 10 µM = 111%

// viability at 28.5 h, 10 µM lookup, molecule = Cc1ccccc1CN(CC(=O)NC1CC1)S(=O)(=O)c1ccc(Cl)cc1 [CBK265757] , result: 98.3%

Form field viability at 28.5 h, 10 µM, entry C1CN=C(SCCCCSC2=NCCCN2)NC1 [CBK278223B] : 107%

Record summary for Cc1cc2ccccc2n2c(=O)n(CC(=O)N3CCCCC3)nc12 [CBK283878] : reported viability at 28.5 h, 10 µM = 85.8%

The recorded viability at 28.5 h, 10 µM for O=C(Oc1ccc2c(c1)C1C=CCC1C(C(=O)O)N2)c1ccc(Cl)cc1Cl (centres unmarked) [CBK265285] is 94.2%
